# METHOD_NOTES: growth inhibition of GSK3B-pretreated HCT116 cells – cell-based, CellTiter-Glo, 0.2 to 20 µM (AID 1117336)
# EXPERIMENTAL_SETUP: HCT116 viability after GSK3B inhibitor, at 20 µM, hits give high values
PARAMETER_MEASURED: viability decrease (%)
Value expressed in %; do not type the unit.

[
  {
    "MOLECULE": "CC(C)[N+](C)(CCOC(=O)C1c2ccccc2Oc2ccccc21)C(C)C",
    "viability decrease [%]": -14.9
  }
]

Query string: Query (molecule): `Cc1onc(-c2ccccc2)c1C(=O)Cl` ; field requested: viability decrease
Result string: 0.5

Query string: Could you do the same for NS(=O)(=O)c1cc2c(cc1C(F)(F)F)NC(Cc1ccccc1)NS2(=O)=O (stereo not given) , please?
Result string: -5.2

Query string: Could you do the same for CC1c2ccccc2CN1NC(=O)c1ccc(Cl)c(S(N)(=O)=O)c1 (stereo not given) , please?
Result string: 26.4

Query string: Could you do the same for `C[C@@H]1CCN(C(=O)[C@H](CCCN=C(N)N)NS(=O)(=O)c2cccc3c2NC[C@H](C)C3)[C@@H](C(=O)O)C1` , please?
Result string: -9.7

###

viability decrease by entry:
# METHOD_NOTES: growth inhibition of GSK3B-pretreated HCT116 cells – cell-based, CellTiter-Glo, 0.2 to 20 µM (AID 1117336)
# EXPERIMENTAL_SETUP: HCT116 viability after GSK3B inhibitor, at 20 µM, hits give high values
Value expressed in %; do not type the unit.

In the examples that follow, each entry is paired with its recorded viability decrease.
[
  {
    "COMPOUND": "CO/N=C(/C(=O)N[C@@H]1C(=O)N2C(C(=O)[O-])=C(C[n+]3ccn4ncccc43)CS[C@H]12)c1nsc(N)n1",
    "EXPERIMENTAL_VALUE": 16.4
  },
  {
    "COMPOUND": "O=C(CCN1CCC(c2ccccc2)C1)c1ccc2c(c1)OCCO2 (stereo not given)",
    "EXPERIMENTAL_VALUE": 11.6
  },
  {
    "COMPOUND": "CCCCCCCCCCCCCCCCCCO",
    "EXPERIMENTAL_VALUE": -15.2
  },
  {
    "COMPOUND": "Cc1cccc(Nc2ccccc2C(=O)O)c1C",
    "EXPERIMENTAL_VALUE": -0.3
  },
  {
    "COMPOUND": "CCN[C@@H]1C[C@H](N)[C@@H](OC2OC(CN)=CCC2N)[C@H](O)[C@H]1O[C@H]1OC[C@](C)(O)[C@H](NC)[C@H]1O (stereo not given in full)",
    "EXPERIMENTAL_VALUE": -7.4
  },
  {
    "COMPOUND": "O=C(O)C(Cc1cc(I)c(O)c(I)c1)c1ccccc1 (stereo not given)",
    "EXPERIMENTAL_VALUE": 36.8
  },
  {
    "COMPOUND": "CC1Cc2ccccc2N1NC(=O)c1ccc(Cl)c(S(N)(=O)=O)c1 (stereo not given)",
    "EXPERIMENTAL_VALUE": -7.2
  },
  {
    "COMPOUND": "Cc1c(C(C)C)c(=O)n(-c2ccccc2)n1C",
    "EXPERIMENTAL_VALUE": -2.5
  },
  {
    "COMPOUND": "CC(=O)OC[C@H]1O[C@@H](OC(C)=O)[C@H](OC(C)=O)[C@@H]1OC(C)=O",
    "EXPERIMENTAL_VALUE": -0.8
  }
]

Let us examine a further case.
Query string: Query (compound): `COc1ccc(/C(C)=C/C(=O)O)c(OC)c1` ; field requested: viability decrease
Result string: 10.1

Reference for the values: PubChem BioAssay
